# Target or system: α-glucosidase
# Assay protocol: α-glucosidase inhibition assay (pNPG, spectrophotometric)
# Type: biochemical
# Condition description: in vitro, pNPG substrate, 37 °C, triplicate; read-out: IC50 ± SEM
Recorded endpoint: IC50 (µM)
Give your result in µM as a bare value.

Example compounds with recorded IC50:
[[record]]
compound = "O=[N+]([O-])c1cc(Cl)ccc1-c1csc(N/N=C\\c2cnc3ccc(F)cn23)n1 [4b]"
unit_abbreviation = "µM"
meas_value = 13.6

[[record]]
compound = "Oc1ccc(-c2csc(N/N=C\\c3cnc4ccc(F)cn34)n2)c(O)c1 [4p]"
unit_abbreviation = "µM"
meas_value = 10.5

[[record]]
compound = "O=[N+]([O-])c1cc(-c2csc(N/N=C\\c3cnc4ccc(F)cn34)n2)cc(C(F)(F)F)c1 [4a]"
unit_abbreviation = "µM"
meas_value = 6.85

[[record]]
compound = "O=[N+]([O-])c1ccc(C(F)(F)F)c(-c2csc(N/N=C\\c3cnc4ccc(F)cn34)n2)c1 [4g]"
unit_abbreviation = "µM"
meas_value = 5.57


Now look at this one.
Quote IC50 with test system α-glucosidase for Cc1ccccc1-c1csc(N/N=C\c2cnc3ccc(F)cn23)n1 [4h]
43.2

* * *

Documented pIC50 across a set of compounds
# Target or system: α-glucosidase
# Assay protocol: α-glucosidase inhibition assay (pNPG, spectrophotometric)
# Format: biochemical
# Condition description: in vitro, pNPG substrate, 37 °C, triplicate; read-out: IC50 ± SEM
Lab note: report pIC50 as minus log10 of the concentration in molar units, number only.

Recall and state the measured pIC50 for `COc1ccc(-c2csc(N/N=C\c3cnc4ccc(F)cn34)n2)c(OC)c1` .
4.25

Recall and state the measured pIC50 for `CN(C)c1ccc(-c2csc(N/N=C\c3cnc4ccc(F)cn34)n2)cc1` .
4.49

Recall and state the measured pIC50 for `COc1cc(C)ccc1-c1csc(N/N=C\c2cnc3ccc(F)cn23)n1` .
4.35

Recall and state the measured pIC50 for `Cc1ccc(-c2csc(N/N=C\c3cnc4ccc(F)cn34)n2)c([N+](=O)[O-])c1` .
4.65

Recall and state the measured pIC50 for `Cc1cc(Cl)ccc1-c1csc(N/N=C\c2cnc3ccc(F)cn23)n1` .
4.46

* * *

# Target or system: α-glucosidase
# Assay protocol: α-glucosidase inhibition assay (pNPG, spectrophotometric)
# Format: biochemical
# Condition description: in vitro, pNPG substrate, 37 °C, triplicate; read-out: IC50 ± SEM
Documented pIC50 across a set of molecules
Lab note: report pIC50 as minus log10 of the concentration in molar units, number only.

Example molecules with recorded pIC50:
[[record]]
cpd_smiles = "Fc1ccc2ncc(/C=N\\Nc3nc(-c4ccc(Cl)cc4Cl)cs3)n2c1"
meas_value = 4.72

[[record]]
cpd_smiles = "COc1cc(O)ccc1-c1csc(N/N=C\\c2cnc3ccc(F)cn23)n1"
meas_value = 4.46

[[record]]
cpd_smiles = "Cc1ccc(-c2ccc(-c3csc(N/N=C\\c4cnc5ccc(F)cn45)n3)cc2)cc1"
meas_value = 4.21


Recall and state the measured pIC50 for `O=[N+]([O-])c1ccc(O)c(-c2csc(N/N=C\c3cnc4ccc(F)cn34)n2)c1` .
5.15

Recall and state the measured pIC50 for `Cc1ccc(-c2csc(N/N=C\c3cnc4ccc(F)cn34)n2)c(C)c1` .
4.29

Recall and state the measured pIC50 for `Fc1ccc2ncc(/C=N\Nc3nc(-c4ccc(-c5ccccc5)cc4)cs3)n2c1` .
4.20
